Origin of values: PubChem BioAssay AID1963840

test system: 695427-040-R-J1-PDC complex spheroid viability; assay: Anticancer human tumor 695427-040-R-J1-PDC patient-derived colon adenocarcinoma cell line growth inhibition [POLQ]; details: curve of first compound; second compound 0.0316 µM;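 also: spheroids exposed to compounds for seven days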
Entries annotated with measured IC50
observable: IC50

{"compound": "CCc1cc2c(N3CCc4c(cc(Cn5ccnc5)cc4-c4cn(C)nc4C(F)(F)F)C3=O)cc(C)nc2c(OC)n1 + COC1C(OC(N)=O)C(O)C(Oc2ccc3c(O)c(NC(=O)c4ccc(O)c(CC=C(C)C)c4)c(=O)oc3c2C)OC1(C)C", "measurement.target": "695427-040-R-J1-PDC complex spheroid viability", "observable": "IC50", "result": "> 10 µM"}
{"compound": "CC[C@@]1(O)C(=O)OCc2c1cc1n(c2=O)Cc2cc3c(CN(C)C)c(O)ccc3nc2-1 + Cc1cccc(N(C)C(=O)C2C(O)CCN2c2nc(C)cc(C(F)(F)F)c2C#N)c1", "measurement.target": "695427-040-R-J1-PDC complex spheroid viability", "observable": "IC50", "result": "> 0.1 µM"}
{"compound": "CCc1c2c(nc3ccc(O)cc13)-c1cc3c(c(=O)n1C2)COC(=O)[C@]3(O)CC + Cc1cccc(N(C)C(=O)C2C(O)CCN2c2nc(C)cc(C(F)(F)F)c2C#N)c1", "measurement.target": "695427-040-R-J1-PDC complex spheroid viability", "observable": "IC50", "result": "> 1 µM"}
{"compound": "COc1cc2cc(C(=O)CCC(=O)O)sc2cc1OC + Nc1ccc(C#CCN(C(=O)Cc2ncc(C(F)(F)F)cc2C(F)(F)F)c2ccc(F)cc2)nn1", "measurement.target": "695427-040-R-J1-PDC complex spheroid viability", "observable": "IC50", "result": "> 10 µM"}
{"compound": "COc1cccc(OCCCN)c1-c1cc(Nc2cnc(C#N)cn2)n[nH]1 + COC1C(OC(N)=O)C(O)C(Oc2ccc3c(O)c(NC(=O)c4ccc(O)c(CC=C(C)C)c4)c(=O)oc3c2C)OC1(C)C", "measurement.target": "695427-040-R-J1-PDC complex spheroid viability", "observable": "IC50", "result": "0.386 µM"}
